Test system: KB
run-description: Concentration required to reduce proliferation of KB human nasopharyngeal carcinoma (KBWT) cell line by 50% as determined by the MTT method
Type: functional, cell-based
*1 amine or outer side, *2 acyl side, *3 side chain or, on linkers, in order; H or OH if unused. Where a SMILES comes first, the peptide text is derived from it. Bridges are numbered along the chain shown (N, C = ends). Roman numbers before positions name the chains, in order. [ ]: non-standard residue; d: D form. Actinocin(1to9) = Cc1c2oc3c(C)ccc(C(=O)[*:2])c3nc-2c(C(=O)[*:1])c(N)c1=O; NMeV = CN[C@H](C(=O)O)C(C)C; Sar = CNCC(=O)O
measurement-kind: IC50 (nM)

Cc1c2oc3c(C)ccc(C(=O)N[C@@H]4C(=O)N[C@H](C(C)C)C(=O)N5CCC[C@H]5C(=O)N(C)CC(=O)N(C)[C@@H](C(C)C)C(=O)O[C@@H]4C)c3nc-2c(C(=O)N[C@@H]2C(=O)N[C@H](C(C)C)C(=O)N3CCC[C@H]3C(=O)N(C)CC(=O)N(C)[C@@H](C(C)C)C(=O)O[C@@H]2C)c(N)c1=O [DACTINOMYCIN] (I: T[dV]P[Sar][NMeV] / II: T[dV]P[Sar][NMeV]; ester I:1-I:C, II:1-II:C; linker I:N-II:N via Actinocin(1to9)) | 4
COc1cc([C@@H]2c3cc4c(cc3[C@@H](O[C@@H]3O[C@@H]5CO[C@@H](C)O[C@H]5[C@H](O)[C@H]3O)[C@H]3COC(=O)[C@H]23)OCO4)cc(OC)c1O [ETOPOSIDE] | 800

I: CCOC(=O)C1=CC2C(=O)c3ncccc3C(=O)C2C(c2ccc([N+](=O)[O-])cc2)=N1 (centres undefined)
II: CC[C@]1(O)C[C@H]2CN(CCc3c([nH]c4ccccc34)[C@@](C(=O)OC)(c3cc4c(cc3OC)N(C=O)[C@H]3[C@@](O)(C(=O)OC)[C@H](OC(C)=O)[C@]5(CC)C=CCN6CC[C@]43[C@@H]65)C2)C1 [VINCRISTINE]
Out of I and II , name the one with the higher IC50. In your reply, give the label of the chosen option.
I

* * *

Test system: MCF7
run-description: Concentration required to reduce proliferation of human breast adenocarcinoma (MCF-7) cell line by 50% as determined by the MTT method
Type: functional, cell-based
pIC50: −log10 of the molar value.
measurement-kind: pIC50

Use these answered entries as a reference point.
CCOC(=O)C1=CC2C(=O)c3ncccc3C(=O)C2C(c2ccc(Br)cc2)=N1 (stereo unspecified) | 6.70
CCOC(=O)C1=CC2C(=O)c3ncccc3C(=O)C2C(c2ccc([N+](=O)[O-])cc2)=N1 (stereo unspecified) | 7.10
CCOC(=O)C1=CC2C(=O)c3cccnc3C(=O)C2C(c2ccc([N+](=O)[O-])cc2)=N1 (stereo unspecified) | 6.70
CCOC(=O)C1=CC2C(=O)c3cccnc3C(=O)C2C(c2ccccc2)=N1 (stereo unspecified) | 6.52
CCOC(=O)C1=CC2C(=O)c3ncccc3C(=O)C2C(c2ccc(Cl)cc2)=N1 (stereo unspecified) | 6.52

A: CCOC(=O)C1=CC2C(=O)c3cccnc3C(=O)C2C(c2ccc(N(C)C)cc2)=N1 (stereo unspecified)
B: CCOC(=O)C1=CC2C(=O)c3ncccc3C(=O)C2C(c2ccc(C)cc2)=N1 (stereo unspecified)
C: CCOC(=O)C1=CC2C(=O)c3cccnc3C(=O)C2C(c2ccc(Br)cc2)=N1 (stereo unspecified)
D: CCOC(=O)C1(N)CSC2=C1C(=O)c1ncccc1C2=O (stereo unspecified)
Sort by pIC50, descending. I'd appreciate it if you listed the labels in the requested order.
D, C, B, A

I: CCOC(=O)C1=CC2C(=O)c3ncccc3C(=O)C2C(c2ccc(OC)cc2)=N1 (stereo unspecified)
II: CCOC(=O)C1=CC2C(=O)c3cccnc3C(=O)C2C(c2ccc(OC)cc2)=N1 (stereo unspecified)
III: CCOC(=O)C1=CC2C(=O)c3cccnc3C(=O)C2C(c2ccc(Cl)cc2)=N1 (stereo unspecified)
Rank items: key pIC50, increasing. I'd appreciate it if you listed the labels in the requested order.
I, II, III

I: CCOC(=O)C1=CC2C(=O)c3cccnc3C(=O)C2C(c2ccc(C)cc2)=N1 (stereo unspecified)
II: CCOC(=O)C1=CC2C(=O)c3ncccc3C(=O)C2C(c2ccccc2)=N1 (stereo unspecified)
III: CCOC(=O)C1=CC2C(=O)c3ncccc3C(=O)C2C(c2ccc(N(C)C)cc2)=N1 (stereo unspecified)
Rank items: key pIC50, increasing. I'd appreciate it if you listed the labels in the requested order.
I, III, II
(I: 5.80, III: 6.00, II: 6.30)
